# TEST DETAILS: qHTS assay for small molecule agonists of the antioxidant response element (ARE) signaling pathway (AID 743202)
# ASSAY CONTEXT: HepG2 ARE-bla reporter, beta-lactamase FRET, 16 h; series mostly up to 73.3 µM
Results filed as inconclusive are left out. Activity calls are given as the source filed them. The call rests on the fitted dose curve; in most records, active means well fitted activation curve with a large enough effect in the signal ratio in the repeat runs (not every such curve was filed as active); inconclusive means weak or mixed curves, or effect the other way; inactive means no such curve, though single readings can be large or run the other way; the % refers to the signal ratio.
Mark one answer only. Choices: active, inactive

COMPOUND | ASSIGNED CLASS
CCCCOC(=O)COc1ccc(Cl)cc1Cl | inactive

Data request: Record request — test call for "CCCCCC/C(C=O)=C\c1ccccc1"
Data returned: inactive

Data request: What classification did CN(C)CCC(c1ccccc1)c1ccccn1 (configuration not stated) end up with in this test?
Data returned: inactive

* * *

# TEST DETAILS: qHTS assay to identify small molecule antagonists of the estrogen receptor beta (ER-beta) signaling pathway - cell viability counter screen (AID 1259382);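 further: HEK293T cells carrying ER-beta-UAS-bla reporter stimulated with estradiol; nearly all actives have a fitted effect of over 55% in size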
# ASSAY CONTEXT: ER-beta-UAS-bla HEK293T viability, CellTiter-Glo luminescence, 16 h; series mostly up to 92.4 µM
# Text: U.S. Tox21 Program National Center for Advancing Translational Sciences [NCATS] NIH Chemical Genomics Center [NCGC] U.S. Environmental Protection Agency [EPA] National Institutes of Environmental Health Sciences [NIEHS] National Toxicology Program [NTP] U.S. Food and Drug Administration [FDA] Tox21 Assay Overview: Estrogen receptor (ER), a nuclear hormone receptor, plays an important role in development, metabolic homeostasis and reproduction. […]
Records with an inconclusive call do not appear. Active and inactive are the calls of the source. The call rests on the fitted dose curve; in most records, active means well fitted cell-killing curve with a large enough effect in the repeat runs; inconclusive means weak or mixed curves; inactive means flat fitted curve, though single readings scatter.
MEASURED ENDPOINT: outcome

MOLECULE | MEASURED ENDPOINT | ASSAY RESULT
CCCCCCCCCCCCCCCO | outcome | inactive
CC1=CCC2CC1C2(C)C (stereo not drawn) | outcome | inactive
CCc1ccc(CCOc2ccc(CC3SC(=O)NC3=O)cc2)nc1 (stereo not drawn) | outcome | inactive

* * *

# TEST DETAILS: qHTS assay to identify small molecule agonists of the NFkB signaling pathway (AID 1159509)
# ASSAY CONTEXT: NFkB-bla ME-180 cells, beta-lactamase FRET ratio, 5 h; series mostly up to 61 µM
Results filed as inconclusive are left out. Activity calls are given as the source filed them. The call rests on the fitted dose curve; in most records, active means well fitted curve in the direction sought with a large enough effect in the signal ratio in the repeat runs (not every such curve was filed as active); inconclusive means weak or mixed curves, or a change in a side signal; inactive means no such curve, though single readings can be large or run the other way; the % refers to the signal ratio.
MEASURED ENDPOINT: outcome

COMPOUND | outcome
O=C(O)c1ccccc1C(c1ccc(O)cc1)c1ccc(O)cc1 | inactive
C=CCOC(=O)c1ccccc1C(=O)OCC=C | inactive
CCCCCCCCCCCCOCCO | inactive
O=C(O)CCCCCCCCCCC(=O)O | inactive
CCCCCCCCC/C=C/CC1CC(=O)OC1=O (centres undefined) | inactive
Cc1ccc(S(N)(=O)=O)cc1 | inactive
CCCCCCCCCCCCS | inactive
CC(=O)OCC(=O)[C@@]12N=C(C)O[C@@H]1C[C@H]1[C@@H]3CCC4=CC(=O)C=C[C@]4(C)[C@H]3[C@@H](O)C[C@@]12C | inactive
FC(F)(F)c1ccc(Cl)c(Cl)c1 | inactive
O=S1(=O)CC=CC1 | inactive

Data request: Requested read-out: outcome. Entry: "CCCCCCCCCCCCCCCO"
Data returned: inactive

Data request: Field request: outcome | item: "CC(=O)Nc1ccccc1"
Data returned: inactive

Data request: What value of outcome has been recorded for this entry: "C=CCNC(N)=S"
Data returned: inactive

Data request: Return reported outcome; argument: "O=C(Oc1ccccc1)c1ccccc1"
Data returned: inactive
